Parameter Kd: see the listing below.
- TARGET_OR_SYSTEM: T1, E. coli β clamp (β subunit of DNA polymerase III, dnaN gene product) (E. coli, UniProt P0A988 1-366)
- T1 construct: Expressed in BL21 E. coli from pET15b with an N-terminal tag; also called β ring; β protein; not shown: N-terminal tag from plasmid pET15b ('N-tagged protein', purified on Ni-NTA)
- T1 sequence (P0A988 whole entry): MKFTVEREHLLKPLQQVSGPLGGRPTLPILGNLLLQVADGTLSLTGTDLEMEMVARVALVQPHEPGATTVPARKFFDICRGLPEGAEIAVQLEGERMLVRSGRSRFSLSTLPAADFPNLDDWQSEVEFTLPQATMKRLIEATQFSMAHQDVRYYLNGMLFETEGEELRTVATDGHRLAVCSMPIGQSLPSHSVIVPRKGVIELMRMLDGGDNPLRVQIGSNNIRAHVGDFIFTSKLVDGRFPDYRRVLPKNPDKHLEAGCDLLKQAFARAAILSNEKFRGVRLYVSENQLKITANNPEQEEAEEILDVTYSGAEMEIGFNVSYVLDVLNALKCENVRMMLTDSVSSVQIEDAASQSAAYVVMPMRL
- ASSAY_INFO: ITC, peptide 400 µM into β ring 30 µM, 25 °C, second experiment
Square brackets hold non-standard residues; d marks the D form. Cha = N[C@@H](CC1CCCCC1)C(=O)O

Before answering, review these 2 worked examples.
BINDER | Kd
H-RQLVLGL-OH (Free peptide in ITC; also called H-Arg-Gln-Leu-Val-Leu-Gly-Leu-OH) [P1, natural C-terminal heptapeptide of E. coli DNA polymerase IV (RQLVLGL)] | 2010 nM
Ac-QLDLF-OH (also called Ac-Gln-Leu-Asp-Leu-Phe-OH) [P6 (AcQLDLF)] | 613 nM

Okay, now this binder:
Request: Returns the measured Kd for the input binder. Input: Ac-Q[Cha]DLF-OH (SMILES CC(=O)N[C@@H](CCC(N)=O)C(=O)N[C@@H](CC1CCCCC1)C(=O)N[C@@H](CC(=O)O)C(=O)N[C@@H](CC(C)C)C(=O)N[C@@H](Cc1ccccc1)C(=O)O, also called AcQChaDLF; Ac Q Cha D L F) [P7 (Ac-Gln-Cha-Asp-Leu-Phe-OH)]
Result: 222 nM
